Assayed target: corticotropin releasing factor 1 receptor
Assay name: cell-based or functional assay
Ends that are not written are not given here.
Observed property: CRF1R EC50

- ZGPPISIDLPFQLLRKVIEIEKQEKEKQQAANNAHLLAHI (C-terminal amide) [SEQ ID NO 277]: 1000 nM
- ZGPPISIDLPIFLLRKVIEIEKQEKEKQQAANNARLLARI (C-terminal amide) [SEQ ID NO 281]: 1000 nM
- IVLSLDVSIGLLQILLEQARARAAREQATTNARILARV-NH2 [SEQ ID NO 370]: 1000 nM
- ZGPPISIDLPAFLLRKMIEIEKQEKEKQQAANNRLLLDTI (C-terminal amide) [SEQ ID NO 222]: 384 nM
- DNPSLSIDVPLFLLRTLLELEKTQSQRERAEQNARIFARV-NH2 [SEQ ID NO 385]: 1000 nM
- HHHHHHIVLSLDVPIGLLQILLEQARARAAREQATTNARILARN-NH2 [SEQ ID NO 296]: 100 nM
- DNPSLSIDLPLLLLRTLLELEKTQSQRERAEQNAQIFAHV-NH2 [SEQ ID NO 324]: 1000 nM
- ZGPPISIDLPQILLRKMIEIEKQEKEKQQAANNARLLARI (C-terminal amide) [SEQ ID NO 285]: 1000 nM
- ZGPPISIDLPFALLRKMIEIEKQEKEKQQAANNRLLLDTI (not fully specified; C-terminal amide) [SEQ ID NO 307]: 78.4 nM
- DNPSLSIDLPLLLLRTLLELEKTQSQRERAEQNARIFARV-NH2 [SEQ ID NO 341]: 850 nM
- DNPSLSIDLPLFLLRTLLELEKTQSQRERAEQNAIIFASV-NH2 [SEQ ID NO 343]: 783 nM
- ZGPPISIDLPFFLLRKVIEIEKQEKEKQQAANNALLLDTI (C-terminal amide) [SEQ ID NO 316]: 222 nM
- NDDPPISIDLPFYLLRNMIEMARIENEREQAGLNAKYLAEV-NH2 [SEQ ID NO 261]: 274 nM
- ZGPPISIDLPFQLLRKVIEIEKQEKEKQQAANNAKLLAKI (C-terminal amide) [SEQ ID NO 274]: 508 nM
- ZGPPISIDLPQFLLRKMIEIEKQEKEKQQAANNRLLLDTI (C-terminal amide) [SEQ ID NO 221]: 236 nM
- ZGPPISIDLPYQLLRKMIEIEKQEKEKQQAANNARLLAR (C-terminal amide) [SEQ ID NO 287]: 1000 nM
- Ac-PSLSIDLPLLLLRTLLELEKTQSQRERAEQNAIIFASV-NH2 [SEQ ID NO 348]: 630 nM
- ZGPPISIDLPLHLLRKMIEIEKQEKEKQQATTNARLLDTV (C-terminal amide) [SEQ ID NO 238]: 753 nM
- ZGPPISIDLPIFLLRKMIEIEKQEKEKQQAANNARLLARI (C-terminal amide) [SEQ ID NO 282]: 1000 nM
- ZGPPISIDLPFQLLRKVIEIEKQEKEKQQATTNARLLDRV (C-terminal amide) [SEQ ID NO 351]: 1000 nM
- ZGPPISIDLPLHLLRKMIEIEKQEKEKQQATTNARLLDRV (C-terminal amide) [SEQ ID NO 239]: 587 nM
- ZGPPISIDLPYALLRKMIEIEKQEKEKQQAANNRLLLDTI (not fully specified; C-terminal amide) [SEQ ID NO 309]: 108 nM
- ZGPPISIDVPYQLLRKVIEIEKQEKEKQQAANNARLLARI (C-terminal amide) [SEQ ID NO 375]: 1000 nM
- ZGPPISIDLPYWLLRKVIEIEKQEKEKQQAANNALLLDTI (C-terminal amide) [SEQ ID NO 311]: 1000 nM
